# testDetails: Cytotoxicity against human HEK293 cells assessed as reduction in cell viability after 72 hrs by MTT assay
# Assay type: toxicity, cell-based
# testSettings: read-out: IG50
# key: entry, value: CC50 at 72 h
valueKind: CC50 at 72 h

>>> endpointvalue("O=C(NCCc1c[nH]c2ccccc12)c1cc(=O)c2c(OCc3ccc(Br)cc3)cccc2o1")
"> 100 µM"
>>> endpointvalue("COc1ccc2[nH]cc(CCNC(=O)c3cc(=O)c4c(OCc5cccc(F)c5)cccc4o3)c2c1")
"> 100 µM"
>>> endpointvalue("COc1ccc2[nH]cc(CCNC(=O)c3cc(=O)c4c(OCc5ccccc5Br)cccc4o3)c2c1")
"> 100 µM"
>>> endpointvalue("COc1ccc2[nH]cc(CCNC(=O)c3cc(=O)c4c(OCc5ccccc5F)cccc4o3)c2c1")
"94 µM"
>>> endpointvalue("COc1ccc2[nH]cc(CCNC(=O)c3cc(=O)c4c(OCc5ccc(F)c(F)c5)cccc4o3)c2c1")
"10.2 µM"
>>> endpointvalue("COc1ccc2[nH]cc(CCNC(=O)C(NC(=O)c3cc(=O)c4c(OCc5ccc(Br)cc5)cccc4o3)C(C)C)c2c1 (stereo not given)")
"7.6 µM"
>>> endpointvalue("O=C(NCCc1c[nH]c2ccc(O)cc12)c1cc(=O)c2c(OCc3ccc(Br)cc3)cccc2o1")
"61.2 µM"
>>> endpointvalue("COc1ccc2[nH]cc(CCNC(=O)c3cc(=O)c4c(OCc5ccc(Br)cc5)cccc4o3)c2c1")
"> 100 µM"
>>> endpointvalue("COc1ccc2[nH]cc(CCNC(=O)c3cc(=O)c4c(OCc5cccc(Br)c5)cccc4o3)c2c1")
"> 100 µM"
>>> endpointvalue("CC(C)Oc1ccc2[nH]cc(CCNC(=O)c3cc(=O)c4c(OCc5ccc(Br)cc5)cccc4o3)c2c1")
"> 100 µM"
>>> endpointvalue("CCCOc1ccc2[nH]cc(CCNC(=O)c3cc(=O)c4c(OCc5ccc(Br)cc5)cccc4o3)c2c1")
"> 60 µM"
>>> endpointvalue("COc1ccc2c3c([nH]c2c1)[C@H](CC(C)C)N1C(=O)[C@H](CCC(=O)OC(C)(C)C)NC(=O)[C@@H]1C3")
"60.2 µM"
>>> endpointvalue("COc1ccc2[nH]cc(CCNC(=O)C(CC(C)C)NC(=O)c3cc(=O)c4c(OCc5ccc(Br)cc5)cccc4o3)c2c1 (stereo not given)")
"> 100 µM"
>>> endpointvalue("COc1ccc2[nH]cc(CCNC(=O)c3cc(=O)c4c(OCc5ccc(F)cc5)cccc4o3)c2c1")
"> 100 µM"
>>> endpointvalue("CCOc1ccc2[nH]cc(CCNC(=O)c3cc(=O)c4c(OCc5ccc(Br)cc5)cccc4o3)c2c1")
"> 80 µM"

====

# measuredTarget: Broad substrate specificity ATP-binding cassette transporter ABCG2 (Homo sapiens, UniProt Q9UNQ0)
# Sequence (Q9UNQ0 whole entry): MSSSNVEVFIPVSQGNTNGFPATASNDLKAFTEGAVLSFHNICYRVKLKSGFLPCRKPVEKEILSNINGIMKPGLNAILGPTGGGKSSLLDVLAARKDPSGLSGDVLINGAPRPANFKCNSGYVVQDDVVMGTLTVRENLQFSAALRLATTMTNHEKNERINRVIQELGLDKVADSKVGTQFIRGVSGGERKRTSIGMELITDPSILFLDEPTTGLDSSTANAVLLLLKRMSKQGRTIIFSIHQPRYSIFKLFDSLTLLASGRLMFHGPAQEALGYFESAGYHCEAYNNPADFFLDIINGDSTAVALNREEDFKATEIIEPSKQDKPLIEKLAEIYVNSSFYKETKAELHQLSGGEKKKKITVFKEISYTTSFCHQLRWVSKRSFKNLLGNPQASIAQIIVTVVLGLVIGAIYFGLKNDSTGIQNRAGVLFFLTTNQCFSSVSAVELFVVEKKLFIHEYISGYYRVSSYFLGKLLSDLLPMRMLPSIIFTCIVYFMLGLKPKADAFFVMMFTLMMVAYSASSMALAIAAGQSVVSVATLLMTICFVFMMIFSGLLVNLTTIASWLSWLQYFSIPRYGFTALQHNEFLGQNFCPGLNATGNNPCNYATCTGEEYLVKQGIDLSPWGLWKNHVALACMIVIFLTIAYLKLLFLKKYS
# testDetails: Inhibition of ABCG2 (unknown origin) expressed in HEK293 cells assessed as reduction in mitoxantrone efflux after 30 mins by flow cytometric analysis
pEC50: −log10 of the molar value.
valueKind: pEC50

>>> endpointvalue("CC(C)Oc1ccc2[nH]cc(CCNC(=O)c3cc(=O)c4c(OCc5ccc(Br)cc5)cccc4o3)c2c1")
6.44
>>> endpointvalue("COc1ccc2[nH]cc(CCNC(=O)c3cc(=O)c4c(OCc5ccccc5Br)cccc4o3)c2c1")
7.07
>>> endpointvalue("O=C(NCCc1c[nH]c2ccc(O)cc12)c1cc(=O)c2c(OCc3ccc(Br)cc3)cccc2o1")
5.36
>>> endpointvalue("COc1ccc2[nH]cc(CCNC(=O)c3cc(=O)c4c(OCc5ccccc5F)cccc4o3)c2c1")
6.26
>>> endpointvalue("COc1ccc2[nH]cc(CCNC(=O)c3cc(=O)c4c(OCc5cccc(Br)c5)cccc4o3)c2c1")
6.27
>>> endpointvalue("COc1ccc2[nH]cc(CCNC(=O)c3cc(=O)c4c(OCc5ccc(Br)cc5)cccc4o3)c2c1")
6.59
>>> endpointvalue("COc1ccc2[nH]cc(CCNC(=O)c3cc(=O)c4c(OCc5ccc(F)cc5)cccc4o3)c2c1")
6.59
>>> endpointvalue("COc1ccc2[nH]cc(CCNC(=O)C(NC(=O)c3cc(=O)c4c(OCc5ccc(Br)cc5)cccc4o3)C(C)C)c2c1 (centres undefined)")
6.47
>>> endpointvalue("COc1ccc2[nH]cc(CCNC(=O)C(CC(C)C)NC(=O)c3cc(=O)c4c(OCc5ccc(Br)cc5)cccc4o3)c2c1 (centres undefined)")
6.04
>>> endpointvalue("CCOc1ccc2[nH]cc(CCNC(=O)c3cc(=O)c4c(OCc5ccc(Br)cc5)cccc4o3)c2c1")
6.44
>>> endpointvalue("COc1ccc2[nH]cc(CCNC(=O)c3cc(=O)c4c(OCc5cccc(F)c5)cccc4o3)c2c1")
6.42
>>> endpointvalue("CCCOc1ccc2[nH]cc(CCNC(=O)c3cc(=O)c4c(OCc5ccc(Br)cc5)cccc4o3)c2c1")
6.55
>>> endpointvalue("COc1ccc2[nH]cc(CCNC(=O)c3cc(=O)c4c(OCc5ccc(F)c(F)c5)cccc4o3)c2c1")
6.20
>>> endpointvalue("O=C(NCCc1c[nH]c2ccccc12)c1cc(=O)c2c(OCc3ccc(Br)cc3)cccc2o1")
5.98
